Here, each record is paired with measured Kd data.
- target entity: T1, Cynomolgus monkey cKIT D1-5 (cynomolgus monkey, UniProt P10721 26-524 (human entry))
- T1 construct: also called cyno cKIT ECD
- T1 chain: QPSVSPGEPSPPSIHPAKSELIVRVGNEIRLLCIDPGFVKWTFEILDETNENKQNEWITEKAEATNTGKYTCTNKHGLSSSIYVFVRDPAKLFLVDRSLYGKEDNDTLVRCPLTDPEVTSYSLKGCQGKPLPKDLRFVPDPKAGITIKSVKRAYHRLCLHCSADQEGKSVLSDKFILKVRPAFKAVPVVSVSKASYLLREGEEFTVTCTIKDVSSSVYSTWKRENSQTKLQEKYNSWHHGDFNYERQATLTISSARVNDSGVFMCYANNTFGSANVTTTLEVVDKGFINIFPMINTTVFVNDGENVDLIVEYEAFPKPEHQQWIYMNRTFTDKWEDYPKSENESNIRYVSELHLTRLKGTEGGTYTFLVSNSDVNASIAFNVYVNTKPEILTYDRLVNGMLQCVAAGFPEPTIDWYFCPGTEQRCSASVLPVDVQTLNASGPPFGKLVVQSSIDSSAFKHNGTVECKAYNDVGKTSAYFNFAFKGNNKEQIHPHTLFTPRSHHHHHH
- assay details: 'in SET' by the column head; Example 4 describes Biacore SPR (antibody captured by anti-human Fc, cKIT ECD in solution)
experimental readout: Kd

{"binder": "Anti-cKIT Ab4 (antibody, human IgG1, lambda, V domains shown, Full-length human IgG1, lambda light chain; also called IgG control for J4) VH: QVQLQQSGPGLVKPSQTLSLTCAISGDSVSTNSAAWNWIRQSPSRGLEWLGRIYYRSQWLNDYAVSVKSRITINPDTSKNQFSLQLNSVTPEDTAVYYCARQLTYPYTVYHKALDVWGQGTLVTVSS VL: DIELTQPPSVSVSPGQTASITCSGDNLGDQYVSWYQQKPGQAPVLVIYDDTDRPSGIPERFSGSNSGNTATLTISGTQAEDEADYYCQSTDSKSVVFGGGTKLTVLG", "experimental readout": "Kd", "assay result": "0.14 nM"}
{"binder": "Anti-cKIT Ab1 (antibody, human IgG1, kappa, V domains shown, Full-length human IgG1, kappa light chain; also called IgG control for J1) VH: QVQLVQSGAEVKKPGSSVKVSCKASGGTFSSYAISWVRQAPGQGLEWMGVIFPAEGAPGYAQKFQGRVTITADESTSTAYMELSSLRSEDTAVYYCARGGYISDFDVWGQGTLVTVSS VL: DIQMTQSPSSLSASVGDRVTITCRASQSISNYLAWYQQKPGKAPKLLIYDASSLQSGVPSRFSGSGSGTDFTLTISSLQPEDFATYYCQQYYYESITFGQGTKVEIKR", "experimental readout": "Kd", "assay result": "0.17 nM"}
